Below, each of the molecules is paired with its reported GI50 value.
- Tested on: panel of 55 breast cancer cell lines
- Assay Explanation: Cell growth inhibition assay (Cell Titer Glo, 72 h, 9 doses; GI50, TGI, LC50)
- Format: cell-based, human
- Reported Conditions: cell line HCC1954; value is the negative log10 of mol/L

Structure Smiles String	GI50
COc1cc2c(Nc3ccc(NC(=O)c4ccccc4)cc3)ncnc2cc1OCCCN1CCOCC1	4.48
CCn1cc(-c2ccnc3[nH]c(-c4cccc(CN(C)C)c4)cc23)c(-c2ccc(NC(=O)N(C)C)cc2)n1	5.56
O=c1[nH]c(=O)n([C@H]2C[C@H](O)[C@@H](CO)O2)cc1F	4.78

---

- System: panel of 55 breast cancer cell lines
- Assay Explanation: Cell growth inhibition assay (Cell Titer Glo, 72 h, 9 doses; GI50, TGI, LC50)
- Assay type: cell-based, human
- Reported Conditions: Homo sapiens, cell line HCC2185; read-out: GI50 (converted)
// class assignment uses GI50 with these ranges: Low (below 0.07 µM), Medium (0.07 µM to below 20 µM), High (20 µM or more)

Structure Smiles String	Class
Cc1cncc2cccc(S(=O)(=O)N3CCCN(C(=O)CN)C[C@@H]3C)c12	Medium
CC(=O)O[C@H]1C(=O)[C@@]2(C)[C@H]([C@H](OC(=O)c3ccccc3)[C@]3(O)C[C@H](OC(=O)[C@H](O)[C@@H](NC(=O)c4ccccc4)c4ccccc4)C(C)=C1C3(C)C)[C@]1(OC(C)=O)CO[C@@H]1C[C@@H]2O	Low
CC[C@@]1(O)C(=O)OCc2c1cc1n(c2=O)Cc2cc3c(CN(C)C)c(O)ccc3nc2-1	Low
CCC1=C[C@@H]2CN(C1)Cc1c([nH]c3ccccc13)[C@@](C(=O)OC)(c1cc3c(cc1OC)N(C)[C@H]1[C@@](O)(C(=O)OC)[C@H](OC(C)=O)[C@]4(CC)C=CCN5CC[C@]31[C@@H]54)C2	High
CC(C)C[C@H](NC(=O)[C@H](Cc1ccccc1)NC(=O)c1cnccn1)B(O)O	Low
CNC(=O)c1cc(Oc2ccc(NC(=O)Nc3ccc(Cl)c(C(F)(F)F)c3)cc2)ccn1	Medium
CC/C(=C(\c1ccccc1)c1ccc(OCCN(C)C)cc1)c1ccccc1	Medium
CCNCCCNC/C=C\CNCCCNCC	High
Nc1nc2[nH]cc(CCc3ccc(C(=O)N[C@@H](CCC(=O)O)C(=O)O)cc3)c2c(=O)[nH]1	High
Cn1c(=O)n(-c2ccc(C(C)(C)C#N)cc2)c2c3cc(-c4cnc5ccccc5c4)ccc3ncc21	Medium

---

- Tested on: panel of 55 breast cancer cell lines
- Assay Explanation: Cell growth inhibition assay (Cell Titer Glo, 72 h, 9 doses; GI50, TGI, LC50)
- Type: cell-based, human
- Reported Conditions: Homo sapiens, MDA-MB-436, cell line MDAMB436; read-out: GI50 (converted)
# Lookup of reported GI50 keyed by entry
Endpoint Label: GI50

Compound	Recorded Value
O=C1c2ccccc2-[n+]2ccc3c([nH]c4ccccc43)c21	417 nM
COc1cc([C@@H]2c3cc4c(cc3[C@@H](O[C@@H]3O[C@@H]5CO[C@@H](C)O[C@H]5[C@H](O)[C@H]3O)[C@H]3COC(=O)[C@H]23)OCO4)cc(OC)c1O [Etoposide]	1000 nM
CCC1=C[C@@H]2CN(C1)Cc1c([nH]c3ccccc13)[C@@](C(=O)OC)(c1cc3c(cc1OC)N(C)[C@H]1[C@@](O)(C(=O)OC)[C@H](OC(C)=O)[C@]4(CC)C=CCN5CC[C@]31[C@@H]54)C2	26.9 nM
CN(C)C/C=C/C(=O)Nc1cc2c(Nc3ccc(F)c(Cl)c3)ncnc2cc1O[C@H]1CCOC1	3720 nM
CC(C)C[C@H](NC(=O)[C@H](Cc1ccccc1)NC(=O)c1cnccn1)B(O)O	8.71 nM
Cn1cnc2c(F)c(Nc3ccc(Br)cc3Cl)c(C(=O)NOCCO)cc21	50100 nM
NS(=O)(=O)OC[C@@H]1C[C@@H](n2ccc3c(N[C@H]4CCc5ccccc54)ncnc32)C[C@@H]1O	269 nM

---

Collected GI50 values appear next to each entry.
- System: panel of 55 breast cancer cell lines
- Assay Explanation: Cell growth inhibition assay (Cell Titer Glo, 72 h, 9 doses; GI50, TGI, LC50)
- Assay type: cell-based, human
- Reported Conditions: cell line HCC70; value is the negative log10 of mol/L

Molecule	GI50
O=c1[nH]c2ccccc2n1C1CCN(Cc2ccc(-c3nc4cc5[nH]cnc5cc4nc3-c3ccccc3)cc2)CC1 [Sigma AKT1-2 inhibitor]	5.74
COc1ccc(C2=N[C@@H](c3ccc(Cl)cc3)[C@@H](c3ccc(Cl)cc3)N2C(=O)N2CCNC(=O)C2)c(OC(C)C)c1 [Nutlin 3a]	4.73
O=C1NC(=O)/C(=C/c2ccc(-c3ccc(F)cc3O)o2)S1 [AS-252424]	4.67
CC(C)[C@H](CO)Nc1nc(Nc2cccc(Cl)c2)c2ncn(C(C)C)c2n1 [Purvalanol A]	3.78
N#Cc1c(NC(=O)c2cccc3ccccc23)sc2c1CCCC2 [TCS JNK 5a]	5.64
COc1cc2c(Nc3ccc(NC(=O)c4ccccc4)cc3)ncnc2cc1OCCCN1CCOCC1 [ZM 447439]	6.01
O=c1[nH]c(=O)n([C@H]2C[C@H](O)[C@@H](CO)O2)cc1F [5-FdUR]	4.05
N.N.O=C([O-])C1(C(=O)[O-])CCC1.[Pt+2] [Carboplatin]	4.82
CC(C)(C)c1cc(C=C(C#N)C#N)cc(Br)c1O [AG1024]	5.21
Cc1cc(Nc2cc(N3CCN(C)CC3)nc(Sc3ccc(NC(=O)C4CC4)cc3)n2)n[nH]1 [VX-680]	5.35
CC(/C=C/C(=O)NO)=C\[C@@H](C)C(=O)c1ccc(N(C)C)cc1 [Trichostatin A]	4.84
COc1cc2ncnc(Nc3cccc(Cl)c3)c2cc1OC [AG1478]	3.94
O=C1C(Cl)=C(NCCN2CCOCC2)C(=O)c2ncccc21 [NSC 663284]	5.51
CCNCCCCNCCCCNCCCCNCCCCNCC=CCNCCCCNCCCCNCCCCNCCCCNCC.Cl.Cl.Cl.Cl.Cl.Cl.Cl.Cl.Cl.Cl (stereo in doubt) [CGC-11144]	6.55
CCn1cc(-c2ccnc3[nH]c(-c4cccc(CN(C)C)c4)cc23)c(-c2ccc(NC(=O)N(C)C)cc2)n1 [GSK1070916]	6.59
NS(=O)(=O)c1ccc(Nc2nc(OCC3CCCCC3)c3[nH]cnc3n2)cc1 [NU6102]	4.69

---

- Tested on: panel of 55 breast cancer cell lines
- Assay Explanation: Cell growth inhibition assay (Cell Titer Glo, 72 h, 9 doses; GI50, TGI, LC50)
- Type: cell-based, human
- Reported Conditions: Homo sapiens, cell line MDAMB175V; read-out: GI50 (converted)
We begin with a simple list: items and their reported GI50.
Endpoint Label: GI50 (nM)

Structure Smiles String	Target Desc	Unit Name	Recorded Value
CO[C@H]1C[C@@H]2CC[C@@H](C)[C@@](O)(O2)C(=O)C(=O)N2CCCC[C@H]2C(=O)O[C@H]([C@H](C)C[C@@H]2CC[C@@H](O)[C@H](OC)C2)CC(=O)[C@H](C)/C=C(\C)[C@@H](O)[C@@H](OC)C(=O)[C@H](C)C[C@H](C)/C=C/C=C/C=C/1C	panel of 55 breast cancer cell lines	nM	3.72
COC1=C2C[C@@H](C)C[C@H](OC)[C@H](O)[C@@H](C)/C=C(\C)[C@H](OC(N)=O)[C@@H](OC)/C=C\C=C(/C)C(=O)NC(=CC1=O)C2=O	panel of 55 breast cancer cell lines	nM	17.8
CS(=O)(=O)CCNCc1ccc(-c2ccc3ncnc(Nc4ccc(OCc5cccc(F)c5)c(Cl)c4)c3c2)o1	panel of 55 breast cancer cell lines	nM	933

---

- Tested on: panel of 55 breast cancer cell lines
- Assay Explanation: Cell growth inhibition assay (Cell Titer Glo, 72 h, 9 doses; GI50, TGI, LC50)
- Type: cell-based, human
- Reported Conditions: Homo sapiens, ZR-75B, cell line ZR75B; read-out: GI50 (converted)
Form field: log10 GI50 (one value per entry).
Endpoint Label: log10 GI50 (log10 of the value in nM)

Structure Smiles String	log10 GI50
CS(=O)(=O)CCNCc1ccc(-c2ccc3ncnc(Nc4ccc(OCc5cccc(F)c5)c(Cl)c4)c3c2)o1	4.22
CCC1=C[C@@H]2CN(C1)Cc1c([nH]c3ccccc13)[C@@](C(=O)OC)(c1cc3c(cc1OC)N(C)[C@H]1[C@@](O)(C(=O)OC)[C@H](OC(C)=O)[C@]4(CC)C=CCN5CC[C@]31[C@@H]54)C2	0.95
COc1cccc2c1C(=O)c1c(O)c3c(c(O)c1C2=O)C[C@@](O)(C(=O)CO)C[C@@H]3O[C@H]1C[C@H](N)[C@H](O)[C@H](C)O1	2.40
Cn1c(=O)n(-c2ccc(C(C)(C)C#N)cc2)c2c3cc(-c4cnc5ccccc5c4)ccc3ncc21	2.15
C#Cc1cccc(Nc2ncnc3cc(OCCOC)c(OCCOC)cc23)c1	4.82
CC(=O)O[C@@]12CO[C@@H]1C[C@H](O)[C@@]1(C)C(=O)[C@H](O)C3=C(C)[C@@H](OC(=O)[C@H](O)[C@@H](NC(=O)OC(C)(C)C)c4ccccc4)C[C@@](O)([C@@H](OC(=O)c4ccccc4)[C@H]21)C3(C)C	1.19
